For each of the compounds below, state its MIC Staphylococcus haemolyticus (GC 4546).
Tested on: Staphylococcus sp.
Test: In vitro antibacterial evaluation: minimum inhibitory concentration (MIC), broth dilution method
Format: cell-based
Settings: broth dilution, 5×10^5 CFU/mL, 18 hours at 35° C.
Number first, unit second: that is the form wanted.

Param readout = MIC Staphylococcus haemolyticus (GC 4546); param system = Staphylococcus sp.; param query = CSc1ccc(C2OCC3OC(OC4C(CO)OC(Oc5ccc(CC6NC(=O)C(C(C)c7ccccc7)NC(=O)CNC(=O)C(CO)NC(=O)C(C(O)C7CNC(=N)N7C7OC(CO)C(O)C(O)C7O)NC(=O)C(C(O)C7CNC(=N)N7)NC6=O)cc5)C(O)C4O)C(O)C(O)C3O2)cc1[N+](=O)[O-] (stereo not drawn) ; response: value
0.5 µg/mL

Also CC(c1ccccc1)C1NC(=O)CNC(=O)C(CO)NC(=O)C(C(O)C2CNC(=N)N2C2OC(CO)C(O)C(O)C2O)NC(=O)C(C(O)C2CNC(=N)N2)NC(=O)C(Cc2ccc(OC3OC(CO)C(OC4OC5COC(c6cccs6)OC5C(O)C4O)C(O)C3O)cc2)NC1=O (stereo not drawn) ?
1 µg/mL

Also CC(C)=CCOc1cccc(C2OCC3OC(OC4C(CO)OC(Oc5ccc(CC6NC(=O)C(C(C)c7ccccc7)NC(=O)CNC(=O)C(CO)NC(=O)C(C(O)C7CNC(=N)N7C7OC(CO)C(O)C(O)C7O)NC(=O)C(C(O)C7CNC(=N)N7)NC6=O)cc5)C(O)C4O)C(O)C(O)C3O2)c1 (stereo not drawn) ?
16 µg/mL

Also CC(c1ccccc1)C1NC(=O)CNC(=O)C(CO)NC(=O)C(C(O)C2CNC(=N)N2C2OC(CO)C(O)C(O)C2O)NC(=O)C(C(O)C2CNC(=N)N2)NC(=O)C(Cc2ccc(OC3OC(CO)C(OC4OC(CO)C(O)C5OC(CC67CC8CC(CC(C8)C6)C7)OC45)C(O)C3O)cc2)NC1=O (stereo not drawn) ?
2 µg/mL

Also COc1cccc(C2OC3C(OC4C(CO)OC(Oc5ccc(CC6NC(=O)C(C(C)c7ccccc7)NC(=O)CNC(=O)C(CO)NC(=O)C(C(O)C7CNC(=N)N7C7OC(CO)C(O)C(O)C7O)NC(=O)C(C(O)C7CNC(=N)N7)NC6=O)cc5)C(O)C4O)OC(CO)C(O)C3O2)c1 (single isomer, unassigned) [Example 137b] ?
8 µg/mL

Also Cc1cc(C2OCC3OC(OC4C(CO)OC(Oc5ccc(CC6NC(=O)C(C(C)c7ccccc7)NC(=O)CNC(=O)C(CO)NC(=O)C(C(O)C7CNC(=N)N7C7OC(CO)C(O)C(O)C7O)NC(=O)C(C(O)C7CNC(=N)N7)NC6=O)cc5)C(O)C4O)C(O)C(O)C3O2)ccc1[N+](=O)[O-] (stereo not drawn) ?
2 µg/mL

----------
Test system: Enterococcus sp.
Test: In vitro antibacterial evaluation: minimum inhibitory concentration (MIC), broth dilution method
Assay type: cell-based
Details: Enterococcus avium (GC 4558); 18 hours at 35° C.
value type: MIC Enterococcus avium (GC 4558)

Item under review: COc1ccc(COCC2OC(OC3C(CO)OC(Oc4ccc(CC5NC(=O)C(C(C)c6ccccc6)NC(=O)CNC(=O)C(CO)NC(=O)C(C(O)C6CNC(=N)N6C6OC(CO)C(O)C(O)C6O)NC(=O)C(C(O)C6CNC(=N)N6)NC5=O)cc4)C(O)C3O)C(O)C(O)C2O)cc1OCc1ccccc1 (stereo not shown) . Reported MIC Enterococcus avium (GC 4558)?
4 mg/L

Also CC(c1ccccc1)C1NC(=O)CNC(=O)C(CO)NC(=O)C(C(O)C2CN(Cc3ccc(C(F)(F)F)cc3)C(=N)N2C2OC(CO)C(O)C(O)C2O)NC(=O)C(C(O)C2CNC(=N)N2)NC(=O)C(Cc2ccc(OC3OC(CO)C(OC4OC5COC6(OC5C(O)C4O)C4CC5CC(C4)CC6C5)C(O)C3O)cc2)NC1=O (stereo not shown) ?
8 mg/L

Also CC(c1ccccc1)C1NC(=O)CNC(=O)C(CO)NC(=O)C(C(O)C2CNC(=N)N2C2OC(CO)C(O)C(O)C2O)NC(=O)C(C(O)C2CNC(=N)N2)NC(=O)C(Cc2ccc(OC3OC(CO)C(OC4OC(COCc5cccs5)C(O)C(O)C4O)C(O)C3O)cc2)NC1=O (stereo not shown) ?
32 mg/L

Also Cc1ccc(Oc2cccc(C3OCC4OC(OC5C(CO)OC(Oc6ccc(CC7NC(=O)C(C(C)c8ccccc8)NC(=O)CNC(=O)C(CO)NC(=O)C(C(O)C8CNC(=N)N8C8OC(CO)C(O)C(O)C8O)NC(=O)C(C(O)C8CNC(=N)N8)NC7=O)cc6I)C(O)C5O)C(O)C(O)C4O3)c2)cc1 (stereo not shown) ?
16 mg/L

----------
System: Enterococcus sp.
Assay: In vitro antibacterial evaluation: minimum inhibitory concentration (MIC), broth dilution method
Type: cell-based
Details: Enterococcus faecalis (GC 4554); broth dilution, 18 hours at 35° C.
value type: MIC Enterococcus faecalis (GC 4554) (µg/mL)
The answer is to be given in µg/mL; state only the numeric part.

Item under review: COc1ccc(Oc2cccc(-c3nc4cc(CC5NC(=O)C(C(C)c6ccccc6)NC(=O)CNC(=O)C(CO)NC(=O)C(C(O)C6CNC(=N)N6C6OC(CO)C(O)C(O)C6O)NC(=O)C(C(O)C6CNC(=N)N6)NC5=O)ccc4o3)c2)cc1 (centres unmarked) . Reported MIC Enterococcus faecalis (GC 4554)?
32

Also CC(c1ccccc1)C1NC(=O)CNC(=O)C(CO)NC(=O)C(C(O)C2CNC(=N)N2C2OC(CO)C(O)C(O)C2O)NC(=O)C(C(O)C2CNC(=N)N2)NC(=O)C(Cc2ccc3oc(SCC(=O)c4ccc(Cl)cc4)nc3c2)NC1=O (centres unmarked) ?
16

----------
Tested on: Staphylococcus sp.
Test: In vitro antibacterial evaluation: minimum inhibitory concentration (MIC), broth dilution method
Assay type: cell-based
Details: strain GC 4548; broth dilution, 18 hours at 35° C.
For each of the compounds below, state its MIC Coagulase Negative Staphylococcus (GC 4548).
Number first, unit second: that is the form wanted.

Param readout = MIC Coagulase Negative Staphylococcus (GC 4548); param system = Staphylococcus sp.; param query = CC(c1ccccc1)C1NC(=O)CNC(=O)C(CO)NC(=O)C(C(O)C2CNC(=N)N2C2OC(CO)C(O)C(O)C2O)NC(=O)C(C(O)C2CNC(=N)N2)NC(=O)C(Cc2ccc(OC3OC(CO)C(OC4OC5COC(CC6CCCCC6)OC5C(O)C4O)C(O)C3O)cc2)NC1=O (centres unmarked) ; response: value
1 µg/mL

Also CC(C)=CCCC(C)C1OCC2OC(OC3C(CO)OC(Oc4ccc(CC5NC(=O)C(C(C)c6ccccc6)NC(=O)CNC(=O)C(CO)NC(=O)C(C(O)C6CNC(=N)N6C6OC(CO)C(O)C(O)C6O)NC(=O)C(C(O)C6CNC(=N)N6)NC5=O)cc4)C(O)C3O)C(O)C(O)C2O1 (centres unmarked) ?
32 µg/mL

----------
System: Enterococcus sp.
Assay: In vitro antibacterial evaluation: minimum inhibitory concentration (MIC), broth dilution method
Type: cell-based
Details: strain GC 6189
value type: MIC Enterococcus faecalis (GC 6189) (µg/mL)
The answer is to be given in µg/mL; state only the numeric part.

Param readout = MIC Enterococcus faecalis (GC 6189); param system = Enterococcus sp.; param query = CC(c1ccccc1)C1NC(=O)CNC(=O)C(CO)NC(=O)C(C(O)C2CNC(=N)N2C2OC(CO)C(O)C(O)C2O)NC(=O)C(C(O)C2CNC(=N)N2)NC(=O)C(Cc2ccc(OC3OC(CO)C(OC4OC5COC(c6cccc(Cl)c6)OC5C(O)C4O)C(O)C3O)cc2)NC1=O (stereo not shown) ; response: value
4

Also CC(c1ccccc1)C1NC(=O)CNC(=O)C(CO)NC(=O)C(C(O)C2CNC(=N)N2C2OC(CO)C(O)C(O)C2O)NC(=O)C(C(O)C2CNC(=N)N2)NC(=O)C(Cc2ccc(OC3OC(CO)C(OC4OC(CO)C(O)C5OC(c6ccc(-c7ccsc7)cc6)OC45)C(O)C3O)cc2)NC1=O (stereo not shown) [Example 164a] ?
16

Also CCCCCCCN1CC(C(O)C2NC(=O)C(C(O)C3CNC(=N)N3)NC(=O)C(Cc3ccc(OC4OC(CO)C(OC5OC6COC7(OC6C(O)C5O)C5CC6CC(C5)CC7C6)C(O)C4O)cc3)NC(=O)C(C(C)c3ccccc3)NC(=O)CNC(=O)C(CO)NC2=O)N(C2OC(CO)C(O)C(O)C2O)C1=N (stereo not shown) ?
4

Also CC(C)=CCOc1cccc(C2OCC3OC(OC4C(CO)OC(Oc5ccc(CC6NC(=O)C(C(C)c7ccccc7)NC(=O)CNC(=O)C(CO)NC(=O)C(C(O)C7CNC(=N)N7C7OC(CO)C(O)C(O)C7O)NC(=O)C(C(O)C7CNC(=N)N7)NC6=O)cc5)C(O)C4O)C(O)C(O)C3O2)c1 (stereo not shown) ?
16

Also CC(c1ccccc1)C1NC(=O)CNC(=O)C(CO)NC(=O)C(C(O)C2CNC(=N)N2C2OC(CO)C(O)C(O)C2O)NC(=O)C(C(O)C2CNC(=N)N2)NC(=O)C(Cc2ccc(OC3OC(CO)C(OC4OC5COC(c6ccc(Oc7ccc(C(C)(C)C)cc7)cc6)OC5C(O)C4O)C(O)C3O)cc2)NC1=O (stereo not shown) ?
2

Also CC(c1ccccc1)C1NC(=O)CNC(=O)C(CO)NC(=O)C(C(O)C2CNC(=N)N2C2OC(CO)C(O)C(O)C2O)NC(=O)C(C(O)C2CNC(=N)N2)NC(=O)C(Cc2ccc(OC3OC(CO)C(OC4OC5COC(c6ccc(-c7cccs7)cc6)OC5C(O)C4O)C(O)C3O)cc2)NC1=O (stereo not shown) ?
4

Also Cc1cc(C2OCC3OC(OC4C(CO)OC(Oc5ccc(CC6NC(=O)C(C(C)c7ccccc7)NC(=O)CNC(=O)C(CO)NC(=O)C(C(O)C7CNC(=N)N7C7OC(CO)C(O)C(O)C7O)NC(=O)C(C(O)C7CNC(=N)N7)NC6=O)cc5)C(O)C4O)C(O)C(O)C3O2)ccc1[N+](=O)[O-] (stereo not shown) ?
64
